# System: CHEAL (Lambsquarters, Common)
# test protocol: Preemergence herbicidal evaluation
# Assay type: in vivo, Chenopodium album
# condition summary: rate 0.0625 kg/ha; rated 4-5 weeks after treatment
readout type: Preemergence herbicidal rating CHEAL

Entry CCOC(=O)CN1C(=O)C[S+]([O-])/C1=N/c1cc(-n2c(=O)cc(C(F)(F)F)n(C)c2=O)c(F)cc1Cl (centres unmarked) [Compound 45] ; assay system CHEAL (Lambsquarters, Common); Preemergence herbicidal rating CHEAL recorded at 9.0

Entry CCOC(=O)CN1C(=O)C(CC(=O)NS(=O)(=O)C(C)C)SC1=Nc1cc(-n2c(=O)cc(C(F)(F)F)n(C)c2=O)c(F)cc1Cl (centres unmarked) [Compound 117] ; assay system CHEAL (Lambsquarters, Common); Preemergence herbicidal rating CHEAL recorded at 9.0

Entry CCOC(=O)CCN1C(=O)CSC1=Nc1cc(-n2c(=O)cc(C(F)(F)F)n(C)c2=O)c(Cl)cc1Cl [Compound 32] ; assay system CHEAL (Lambsquarters, Common); Preemergence herbicidal rating CHEAL recorded at 9.0

Entry Cn1c(C(F)(F)F)cc(=O)n(-c2cc(N=C3SCC(=O)N3CC(=O)NS(C)(=O)=O)c(Cl)cc2F)c1=O [Compound 38] ; assay system CHEAL (Lambsquarters, Common); Preemergence herbicidal rating CHEAL recorded at 9.0

Entry C#CCOC(=O)CC1SC(=Nc2cc(-n3c(=O)cc(C(F)(F)F)n(C)c3=O)c(F)cc2Cl)N(CC(=O)OCC)C1=O (centres unmarked) [Compound 59] ; assay system CHEAL (Lambsquarters, Common); Preemergence herbicidal rating CHEAL recorded at 9.0

Entry Cn1c(C(F)(F)F)cc(=O)n(-c2cc(N=C3SCC(=O)N3Cc3ccco3)c(Cl)cc2F)c1=O [Compound 122] ; assay system CHEAL (Lambsquarters, Common); Preemergence herbicidal rating CHEAL recorded at 7.0

Entry COC(=O)CCN1C(=O)CSC1=Nc1cc(-n2c(=O)cc(C(F)(F)F)n(C)c2=O)c(F)cc1Cl [Compound 28] ; assay system CHEAL (Lambsquarters, Common); Preemergence herbicidal rating CHEAL recorded at 0.0

Entry Cn1c(C(F)(F)F)cc(=O)n(-c2cc(N=C3SCC(=O)N3[C@H](Cc3ccccc3)C(=O)O)c(Cl)cc2F)c1=O [Compound 69] ; assay system CHEAL (Lambsquarters, Common); Preemergence herbicidal rating CHEAL recorded at 9.0

Entry CCOC(=O)CN1C(=O)C(CC(=O)OC(C)C)SC1=Nc1cc(-n2c(=O)cc(C(F)(F)F)n(C)c2=O)c(F)cc1Cl (centres unmarked) [Compound 60] ; assay system CHEAL (Lambsquarters, Common); Preemergence herbicidal rating CHEAL recorded at 9.0

Entry CCOC(=O)CN1C(=O)C(Cc2ccccc2OC(C)C(=O)OC)SC1=Nc1cc(-n2c(=O)cc(C(F)(F)F)n(C)c2=O)c(F)cc1Cl (centres unmarked) [Compound 50] ; assay system CHEAL (Lambsquarters, Common); Preemergence herbicidal rating CHEAL recorded at 0.0

Entry Cn1c(C(F)(F)F)cc(=O)n(-c2cc(N=C3SCC(=O)N3CC(=O)OCC3CC3)c(Cl)cc2F)c1=O [Compound 124] ; assay system CHEAL (Lambsquarters, Common); Preemergence herbicidal rating CHEAL recorded at 9.0
